- subject-of-test: Carbonic anhydrase 5B, mitochondrial (Homo sapiens)
- Sequence (Q9Y2D0 whole entry): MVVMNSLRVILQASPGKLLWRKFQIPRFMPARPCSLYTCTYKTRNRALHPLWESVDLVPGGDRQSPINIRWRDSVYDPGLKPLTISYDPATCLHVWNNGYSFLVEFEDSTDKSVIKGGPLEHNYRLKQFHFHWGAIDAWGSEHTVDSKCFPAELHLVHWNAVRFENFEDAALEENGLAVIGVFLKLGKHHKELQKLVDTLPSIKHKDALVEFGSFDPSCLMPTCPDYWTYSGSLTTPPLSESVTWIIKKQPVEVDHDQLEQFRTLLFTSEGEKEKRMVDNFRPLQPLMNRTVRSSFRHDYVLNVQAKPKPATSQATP
measurement-type: Ki (nM)
Report the figure in nM without appending any unit label.

Prompt line: Determine reported Ki for NS(=O)(=O)c1cc(C2(O)NC(=O)c3ccccc32)ccc1Cl (stereo unspecified) ; test system: Carbonic anhydrase 5B, mitochondrial (Homo sapiens).
Response line: 9

----------
- subject-of-test: Carbonic anhydrase 4 (Homo sapiens)
- Sequence (P22748 whole entry): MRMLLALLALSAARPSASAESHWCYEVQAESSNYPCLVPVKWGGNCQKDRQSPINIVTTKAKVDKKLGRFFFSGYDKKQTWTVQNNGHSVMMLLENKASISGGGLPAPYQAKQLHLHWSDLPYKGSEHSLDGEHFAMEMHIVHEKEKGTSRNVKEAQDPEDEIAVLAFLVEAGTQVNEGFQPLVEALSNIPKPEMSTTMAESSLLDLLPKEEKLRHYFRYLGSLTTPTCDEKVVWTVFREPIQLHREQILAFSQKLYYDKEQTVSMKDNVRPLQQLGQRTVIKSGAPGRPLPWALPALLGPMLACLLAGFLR
measurement-type: Ki (nM)
Report the figure in nM without appending any unit label.

Prompt line: Give the reported Ki for this molecule. NS(=O)(=O)c1cc(C2(O)NC(=O)c3ccccc32)ccc1Cl (stereo unspecified)
Response line: 196

----------
- subject-of-test: Carbonic anhydrase 2 (Homo sapiens, UniProt P00918)
measurement-type: Ki
Remember to quote the unit after the number.

Prompt line: Give the reported Ki for this compound. NS(=O)(=O)c1cc(C2(O)NC(=O)c3ccccc32)ccc1Cl (stereo unspecified)
Response line: 138 nM
